These data points were gathered from patent US20240034757A1.

Quick reference for Kd among some binders
- TARGET OR SYSTEM: T1, P1243_AMBAM (Amblyomma americanum, UniProt A0A0C9S461 26-123);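 also: biolayer interferometry on an Octet system: chemokines at several doses tested against tick chemokine-binding proteins, association, equilibrium and dissociation curves fitted to derive Kd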
- T1 sequence: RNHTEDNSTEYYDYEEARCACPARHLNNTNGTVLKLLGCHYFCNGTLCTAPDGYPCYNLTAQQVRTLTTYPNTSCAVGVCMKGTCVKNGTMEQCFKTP
- PROCEDURE DETAILS: BLI

BINDER	Kd / nM
CCL18_HUMAN (ligand) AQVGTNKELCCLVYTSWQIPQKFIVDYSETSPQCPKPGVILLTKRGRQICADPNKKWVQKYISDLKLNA	0.00501
CCL14_HUMAN (ligand) TESSSRGPYHPSECCFTYTTYKIPRQRIMDYYETNSQCSKPGIVFITKRGHSVCTNPSDKWVQDYIKDMKEN	0.816
CCL15_HUMAN (ligand) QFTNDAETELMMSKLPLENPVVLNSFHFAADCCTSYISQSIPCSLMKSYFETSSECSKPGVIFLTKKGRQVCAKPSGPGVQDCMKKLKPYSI	9.61
